# system_tested: human TLR8 (Homo sapiens)
# Sequence (Q9NR97 27-1041): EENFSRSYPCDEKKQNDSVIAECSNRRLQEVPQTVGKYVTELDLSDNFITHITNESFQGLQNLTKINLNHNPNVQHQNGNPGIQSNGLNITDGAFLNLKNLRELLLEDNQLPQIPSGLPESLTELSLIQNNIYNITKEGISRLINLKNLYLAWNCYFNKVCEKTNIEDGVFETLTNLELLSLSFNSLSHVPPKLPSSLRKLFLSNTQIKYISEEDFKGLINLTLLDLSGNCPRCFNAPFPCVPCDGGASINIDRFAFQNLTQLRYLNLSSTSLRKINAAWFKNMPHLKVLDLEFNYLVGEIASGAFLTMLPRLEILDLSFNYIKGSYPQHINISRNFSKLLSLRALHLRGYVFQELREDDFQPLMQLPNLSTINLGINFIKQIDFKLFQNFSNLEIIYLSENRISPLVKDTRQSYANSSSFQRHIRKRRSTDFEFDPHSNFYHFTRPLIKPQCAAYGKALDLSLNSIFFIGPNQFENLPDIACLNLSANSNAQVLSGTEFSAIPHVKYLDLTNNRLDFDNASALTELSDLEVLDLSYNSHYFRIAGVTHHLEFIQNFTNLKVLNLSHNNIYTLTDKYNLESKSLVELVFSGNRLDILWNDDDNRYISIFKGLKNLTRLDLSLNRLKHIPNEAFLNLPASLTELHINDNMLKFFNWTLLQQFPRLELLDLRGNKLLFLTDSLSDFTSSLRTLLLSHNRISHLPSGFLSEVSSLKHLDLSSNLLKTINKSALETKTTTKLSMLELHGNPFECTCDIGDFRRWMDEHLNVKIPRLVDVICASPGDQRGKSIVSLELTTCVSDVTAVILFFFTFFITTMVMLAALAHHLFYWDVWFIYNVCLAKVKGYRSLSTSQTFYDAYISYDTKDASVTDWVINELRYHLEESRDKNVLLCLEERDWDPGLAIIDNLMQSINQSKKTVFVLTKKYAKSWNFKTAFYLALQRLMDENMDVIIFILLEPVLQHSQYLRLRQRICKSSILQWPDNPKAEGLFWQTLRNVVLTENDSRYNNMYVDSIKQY
# test_summary: TLR8 inhibition reporter assay (HEK-Blue SEAP)
# recorded_conditions: HEK-Blue cells overexpressing human TLR8, stimulated with R848 15.9 μM, 22 hour incubation
# Text: TLR7/8/9 Inhibition Reporter Assays HEK-Blue™-cells (Invivogen) overexpressing human TLR7, TLR8 or TLR9 receptors were used for screening inhibitors of these receptors using an inducible SEAP (secreted embryonic alkaline phosphatase) reporter gene under the control of the IFN-β minimal promoter fused to five NF-κB and AP-1-binding sites. […]
Below, each entry is listed alongside its reported IC50.
The answer is to be given in nM; state only the numeric part.

Past entries and their recorded results:
compound	system_tested	units	result
Cc1cc(-c2cc(C)c3ncnn3c2)cc2[nH]cc(C3CCNCC3)c12 [Example 16]	human TLR8 (Homo sapiens)	nM	35.2
COc1cc(-c2cc(C)c3c(OC4CCC(N(C)C)CC4)n[nH]c3c2)cn2ncnc12 (single isomer, unassigned) [Example 183]	human TLR8 (Homo sapiens)	nM	8.1
Cc1cc(-c2cc3[nH]nc(C4CCC(N5CCC6(COC6)C5)CC4)c3cc2C(C)C)cn2ncnc12 (single isomer, unassigned) [Example 159]	human TLR8 (Homo sapiens)	nM	0.1
Cc1cc(-c2cc3[nH]nc(C4CCC(NC5CC5)CC4)c3cc2C(C)C)cn2ncnc12 (single isomer, unassigned) [Example 119]	human TLR8 (Homo sapiens)	nM	0.1
CCc1cc2c(C3CCC(NC4CC4)CC3)n[nH]c2cc1-c1cc(C)c2ncnn2c1 (single isomer, unassigned) [Example 97]	human TLR8 (Homo sapiens)	nM	0.1

We now examine a further compound.
Query string: For the compound shown here, Cc1cc(-c2cc3[nH]nc(C4CCC(N5CC(OC(C)C)C5)CC4)c3cc2C(C)C)cn2ncnc12 (single isomer, unassigned) [Example 162] , give the reported IC50.
Result string: 0.7
